- target: CGRP receptor (Homo sapiens, UniProt O60894+Q16602)
- Sequence (Q16602 23-461): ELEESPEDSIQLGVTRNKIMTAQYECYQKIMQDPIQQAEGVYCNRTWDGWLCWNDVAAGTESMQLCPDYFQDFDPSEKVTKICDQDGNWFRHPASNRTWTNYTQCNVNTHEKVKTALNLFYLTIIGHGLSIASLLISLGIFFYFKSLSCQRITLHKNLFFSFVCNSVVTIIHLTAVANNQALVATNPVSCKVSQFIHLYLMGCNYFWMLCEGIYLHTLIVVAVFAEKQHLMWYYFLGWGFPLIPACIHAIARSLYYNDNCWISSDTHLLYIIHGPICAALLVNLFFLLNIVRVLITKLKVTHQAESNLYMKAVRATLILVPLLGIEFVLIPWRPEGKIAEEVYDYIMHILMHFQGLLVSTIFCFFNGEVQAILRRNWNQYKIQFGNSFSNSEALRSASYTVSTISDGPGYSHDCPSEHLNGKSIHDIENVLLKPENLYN
- Sequence (O60894 27-148): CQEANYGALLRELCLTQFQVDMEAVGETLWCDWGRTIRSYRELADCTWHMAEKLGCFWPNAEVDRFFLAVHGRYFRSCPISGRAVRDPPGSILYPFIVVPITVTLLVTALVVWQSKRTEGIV
- test details: CGRP radioligand binding assay ([125I]-CGRP displacement, SK-N-MC homogenate)
- Parameters: endogenous in cells; host or cells: SK-N-MC cells (homogenate/membrane pellet)
- assay conditions: displacement of [125I]-CGRP, room temperature 2 h
Where a name gives a salt, the structure may show the parent alone.
// values below are reported IC50

Asked: # get_value(readout='IC50', item= CC(C)(C)CN1Cc2c(cc(Cl)c3[nH]ncc23)C[C@@H](CC(=O)N2CCC(c3cc4cccnc4[nH]c3=O)CC2)C1=O [Example 79] )
Given back: 0.1 to 10 nM

Asked: # get_value(readout='IC50', item= CC(C)(C)CN1Cc2c(ccc3[nH]ncc23)C[C@@H](CC(=O)N2CCC(c3cc4ccccc4[nH]c3=O)CC2)C1=O [Example 42] )
Given back: 10 to 100 nM

Asked: # get_value(readout='IC50', item= O=C(C[C@@H]1Cc2cc(Cl)c3[nH]ncc3c2CN(CC(F)(F)F)C1=O)N1CCC(c2cc3ccccc3[nH]c2=O)CC1 [Example 90] )
Given back: 0.1 to 10 nM

Asked: # get_value(readout='IC50', item= O=C(C[C@@H]1Cc2cc(Cl)c3[nH]ncc3c2CN(Cc2ccncc2)C1=O)N1CCC(c2cc3cccc(F)c3[nH]c2=O)CC1 [Example 51] )
Given back: 0.1 to 10 nM

Asked: # get_value(readout='IC50', item= Cc1cc2c(cc1N)CN(Cc1ccccc1)C(=O)[C@H](NC(=O)N1CCC(N3Cc4ccccc4NC3=O)CC1)C2 [Example 55, trifluoroacetate] )
Given back: 100 to 1000 nM

Asked: # get_value(readout='IC50', item= CC(C)(C)CN1Cc2c(cc(Cl)c3[nH]ncc23)C[C@@H](CC(=O)N2CCC3(CC2)NC(=O)Nc2ccccc23)C1=O [Example 46] )
Given back: 0.1 to 10 nM

###

- target: CGRP receptor (Homo sapiens, UniProt O60894+Q16602)
- test details: Cyclic AMP functional antagonism assay in SK-N-MC cells
- Format: cell-based
- Design: SK—N-MC cells that endogenously express the human CGRP receptor; endogenous in cells; host or cells: SK-N-MC cells
- assay conditions: inhibition of 0.3 nM CGRP-induced cyclic AMP formation, 15 min pre-incubation, read-out: cAMP Function IC50
experimental readout: IC50

Answered cases to consult:
[
  {
    "smiles text": "C[C@H](c1ccccc1)N1Cc2c(ccc3[nH]ncc23)C[C@@H](NC(=O)N2CCC(N3Cc4ccccc4NC3=O)CC2)C1=O",
    "IC50": "10 to 100 nM"
  },
  {
    "smiles text": "CC(C)(C)CN1Cc2c(ccc3[nH]ncc23)C[C@@H](CC(=O)N2CCC(c3cc4ccccc4[nH]c3=O)CC2)C1=O",
    "IC50": "10 to 100 nM"
  },
  {
    "smiles text": "O=C(N[C@@H]1Cc2ccc3[nH]ncc3c2CN(Cc2ccccc2)C1=O)N1CCC(N2Cc3ccccc3NC2=O)CC1",
    "IC50": "10 to 100 nM"
  },
  {
    "smiles text": "CC(C)(C)CN1Cc2c(cc(Cl)c3[nH]ncc23)C[C@@H](CC(=O)N2CCC(n3cc(-c4ccccn4)[nH]c3=O)CC2)C1=O",
    "IC50": "0.1 to 10 nM"
  },
  {
    "smiles text": "O=C(N[C@@H]1Cc2cc(Cl)c3[nH]ncc3c2CN(Cc2ccccc2)C1=O)N1CCC(N2Cc3ccccc3NC2=O)CC1",
    "IC50": "0.1 to 10 nM"
  }
]

Asked: API: value(readout= IC50, system= CGRP receptor (Homo sapiens, UniProt O60894+Q16602), query= O=C(C[C@@H]1Cc2cc(Cl)c3[nH]ncc3c2CN(Cc2ncc[nH]2)C1=O)N1CCC(N2Cc3ccccc3NC2=O)CC1 )
Given back: 0.1 to 10 nM
